Recorded pEC50, one value per entry.
# assay_system: human GcgR (Homo sapiens)
# Sequence (P47871 26-477): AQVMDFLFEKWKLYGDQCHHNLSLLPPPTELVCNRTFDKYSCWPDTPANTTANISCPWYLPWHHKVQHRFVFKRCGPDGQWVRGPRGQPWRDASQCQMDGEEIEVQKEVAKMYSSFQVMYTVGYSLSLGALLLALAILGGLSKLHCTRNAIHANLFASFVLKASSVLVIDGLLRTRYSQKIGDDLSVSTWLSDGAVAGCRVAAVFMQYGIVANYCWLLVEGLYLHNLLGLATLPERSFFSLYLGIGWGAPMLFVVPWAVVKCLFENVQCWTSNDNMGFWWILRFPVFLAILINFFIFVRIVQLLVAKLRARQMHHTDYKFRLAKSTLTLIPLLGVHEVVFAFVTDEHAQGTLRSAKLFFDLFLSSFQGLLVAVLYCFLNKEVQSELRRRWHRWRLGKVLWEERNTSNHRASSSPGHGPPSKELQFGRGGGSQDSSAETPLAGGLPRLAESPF
# assay_details: Functional cAMP activity in the presence of 1% HSA
# Assay type: cell-based
# test_parameters: read-out: cAMP Rel EC50, hGcgR
pEC50: −log10 of the molar value. Starred links: 1 amine or outer side, 2 acyl side, 3 side chain; linkers in the order of their positions; H or OH if unused. Non-standard residues stand in square brackets, D forms with d. Groups on a side chain read outwards from the residue. *: point of attachment. C18 diacid = O=C(O)CCCCCCCCCCCCCCCCC(=O)*; αMePhe(2-F) = C[C@](N)(Cc1ccccc1F)C(=O)O; γGlu = O=C(O)[C@H](CCC(=O)[*:2])N[*:1]; αMeY = C[C@](N)(Cc1ccc(O)cc1)C(=O)O; 4Pal = N[C@@H](Cc1ccncc1)C(=O)O; αMeL = CC(C)C[C@](C)(N)C(=O)O; αMeS = C[C@](N)(CO)C(=O)O; Orn = NCCC[C@H](N)C(=O)O; AEEA = NCCOCCOCC(=O)O; Aib = CC(C)(N)C(=O)O

substance	pEC50
H-Y[Aib]QGT[αMePhe(2-F)]TSD[4Pal][αMeS]I[αMeL]LD[Orn]K([γGlu-γGlu-C18 diacid])AQ[Aib][Orn]FI[dE][αMeY]LAEGGPSSGEPPPSGGEE-NH2 [Example 590]	6.51
H-Y[Aib]QGT[αMePhe(2-F)]TSD[4Pal][αMeS]I[αMeL]LD[Orn]K([AEEA-γGlu-C18 diacid])AQ[Aib][Orn]FI[dE][αMeY]LIEGGPSSGEPPPEGE-NH2 [Example 698]	6.91
H-Y[Aib]QGT[αMePhe(2-F)]TSD[4Pal]SILLDKK([γGlu-γGlu-C18 diacid])AQ[Aib]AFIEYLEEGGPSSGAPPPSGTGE-NH2 [Example 510]	6.25
H-Y[Aib]QGTFTSDFS[Orn][αMeL]LDKK([AEEA-γGlu-C18 diacid])AQ[Aib]AFIEYLLE[Aib]GPSSGAPPPSGT-NH2 [Example 200]	6.44
H-Y[Aib]QGTFTSDFS[Orn][αMeL]LDKK([AEEA-AEEA-γGlu-C18 diacid])AQ[Aib]AFIEYLLE[Aib]GPSSGAPPPSGS-NH2 [Example 75]	5.98
